B1: ZNF649 (parent)
chain: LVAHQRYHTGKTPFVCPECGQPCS

Variants of: B1
Assay Notes: protein stability index of a GFP-peptide fusion (GPS, HEK-293T) (PSI 1-6); higher = more stable;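 also: lentivirally expressed fusions sorted by FACS into six bins by GFP to DsRed ratio, PSI derived from sequencing read proportions per bin multiplied by bin number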
Condition Parameters: c terminus: a fixed tail appended
Measurement Kind: protein stability index

INSERT INTO measurements (mutant, value_reported) VALUES
  ('C19E', 3.03),
  ('R6G', 3.86),
  ('Q5S', 3.14),
  ('K11A', 3.98),
  ('C16F', 2.28),
  ('H4Q', 3.61);
